Cited source for all entries: PubChem BioAssay (Tox21)

# Assay text: qHTS assay to identify small molecule antagonists of the estrogen related receptor signaling pathway with the pleiotropic PPARgamma coactivator (PGC) from Tox21 10K library - cell viability counter screen (AID 1224840); also: nearly all actives have a fitted effect of over 40% in size
# Condition info: PGC/ERR reporter cells viability, CellTiter-Fluor, 17.5 h; series mostly up to 92.4 µM
Records with an inconclusive call do not appear. Calls of active or inactive are those of the source. Calls follow the shape of the dose curve; as a rule, active = well fitted cell-killing curve with a large enough effect in the repeat runs (not every such curve was filed as active); inconclusive = weak or mixed curves, or effect the other way; inactive = no such curve, though single readings can be large or run the other way.
Can you answer with just one of these options? T for active, F for inactive

# example entries with known answers
• NC(=O)OCC(COC(N)=O)c1ccccc1 = F
• OC[C@@H](O)[C@@H](O)[C@H](O)[C@H](O)CO = F
• CCCCNC(=O)NS(=O)(=O)c1ccc(N)cc1 = F

Prompt: What call does the record list for `O=c1cc[nH]c(=O)[nH]1` ?
Completion: F

Prompt: What call does the record list for `CCc1cc(C(N)=S)ccn1` ?
Completion: F

Prompt: What call does the record list for `CN(C)Cc1cc(CN(C)C)c(O)c(CN(C)C)c1` ?
Completion: F

Prompt: What call does the record list for `CCCCCCCCCCCCCC(=O)OC(C)C` ?
Completion: F

Prompt: What call does the record list for `CCOC(=O)C(C)(C)Oc1ccc(Cl)cc1` ?
Completion: F

Prompt: What call does the record list for `CC(=O)/C=C/C1=C(C)CCCC1(C)C` ?
Completion: F

Prompt: What call does the record list for `C=C(C)OC(C)=O` ?
Completion: F

Prompt: What call does the record list for `Cc1cccc(Nc2cc(Cl)nc(SCC(=O)O)n2)c1C` ?
Completion: F

Prompt: What call does the record list for `CCOCCO` ?
Completion: F

Prompt: What call does the record list for `COc1cc(O)c(C(=O)c2ccccc2)cc1S(=O)(=O)O` ?
Completion: F

###

# Assay text: qHTS assay to identify small molecule HDAC inhibitors - cell viability counter screen (AID 1259365); also: nearly all actives have a fitted effect of over 50% in size
# Condition info: HCT-116 viability, CellTiter-Glo ATP luminescence, 2 h; series mostly up to 92.4 µM
Calls of active or inactive are those of the source. Calls come from the whole dose curve; as a rule, active = well fitted cell-killing curve with a large enough effect in the repeat runs; inconclusive = weak or mixed curves, or effect the other way; inactive = flat fitted curve, though single readings scatter.
Result type: outcome

• NC(=O)NO = inactive
• CCOC(=O)C(C)(C)Oc1ccc(Cl)cc1 = inactive
• CC1=C(/C=C/C(C)=C/C=C/C(C)=C/C(=O)O)C(C)(C)CCC1 = inactive
• CCCCOCCOCCSC#N = inactive
• CC(C)(C)CC(C)(C)c1ccc(O)c(-n2nc3ccccc3n2)c1 = inactive
• NC(=O)N/N=C/c1ccc([N+](=O)[O-])o1 = inactive

Prompt: Requested read-out: outcome. Entry: `CO[C@H]1C=CO[C@@]2(C)Oc3c(C)c(O)c4c(O)c(c(/C=N/N5CCN(C)CC5)c(O)c4c3C2=O)NC(=O)/C(C)=C\C=C[C@H](C)[C@H](O)[C@@H](C)[C@@H](O)[C@@H](C)[C@H](OC(C)=O)[C@@H]1C`
Completion: inactive

Prompt: Requested read-out: outcome. Entry: `Cc1cccc(C)c1O`
Completion: inactive

Prompt: Requested read-out: outcome. Entry: CC(C)CC(C)CC(O)CC(C)C (configuration not stated)
Completion: inactive

###

# Assay text: A CellTox Green Cytotoxicity Assay to monitor cytotoxicity in HepG2 cells - 40 hour (AID 1224879); also: nearly all actives have a fitted effect of over 40% in size
# Condition info: CellTox Green fluorescence; series mostly up to 76.8 µM
Records with an inconclusive call do not appear. The source made the active and inactive calls. Calls come from the whole dose curve; as a rule, active = well fitted activation curve with a large enough effect in the repeat runs; inconclusive = weak or mixed curves; inactive = flat fitted curve, though single readings scatter.
Result type: outcome

- NC(=O)N/N=C/c1ccc([N+](=O)[O-])o1: inactive
- Cc1cccc2ccccc12: inactive
- COc1ccccc1NC(=O)CC(C)=O: inactive
- CC(=O)OC/C=C(C)/C=C/C=C(C)/C=C/C1=C(C)CCCC1(C)C: inactive
- OCCCc1ccccc1: inactive
- O=C(OCc1ccccc1)c1ccccc1: inactive
- NC(=O)NO: inactive

Turning to the following compound.
Prompt: Requested read-out: outcome. Entry: CC(C)CC(C)CC(O)CC(C)C (stereo not drawn)
Completion: inactive
